Below is a list of entries, each paired with its recorded %Inh value.
System: MST1R
conditionLabel: concentration: 1 μM, replicates: in singlicate; n = 1
Form entry: value (%) — number only.

# molecule, unitOfMeasure, %Inh
data = [
    ("NCC(NC(=O)c1cc(-c2cn[nH]c2)c(-c2ccnc3[nH]ccc23)s1)c1ccccc1.O=C(O)C(F)(F)F.O=C(O)C(F)(F)F (stereo not drawn) [GSK1325775]", "%", 5),
    ("CCn1cnc2c(N)ncnc21 [GW345098]", "%", 0),
    ("Cc1cccc(-c2nc(-c3ccc(S(C)(=O)=O)cc3)sc2-c2ccncc2)c1", "%", 23),
    ("O=C(NOCC1CC1)c1ccc(F)c(F)c1Nc1ccc(I)cc1Cl", "%", 0),
]

Problem: # returns recorded %Inh (system: MST1R) for Fc1ccc(-c2ncn(CCCN3CCOCC3)c2-c2cccnc2)cc1 [SB-211743];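 note: KINOMEscan kinase panel screen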
Solution: 0

Problem: Also need Cl.Oc1cccc(Nc2ccnc3cc(-c4ccncc4)ccc23)c1 [GW494601] , thanks.
Solution: 36

Problem: Also need O=c1cc(N2CCOCC2)nc2n(Cc3cccc4ccccc34)ccn12 [GSK2333389] , thanks.
Solution: 12

Problem: Also need COC(=O)Nc1nc2cc(Oc3ccc(NC(=O)Nc4cc(F)ccc4F)cc3)ccc2[nH]1.Cl [GW701424] , thanks.
Solution: 29

Problem: Also need O=C1NC(=O)C(N2CCc3ccccc32)=C1c1cccc(Cl)c1 [SB-408010] , thanks.
Solution: 5
